System: 3D7
procedure.details: qHTS profiling for inhibitors of Plasmodium falciparum proliferation (AID 504749); note: nearly all actives have a fitted effect of over 60% in size
experimental.setup: P. falciparum in erythrocytes, SYBR Green DNA, 72 h; series mostly up to 28.7 µM
Results filed as inconclusive are left out. Calls of active or inactive are those of the source. Calls come from the whole dose curve; as a rule, active = well fitted inhibition curve with a large enough effect; inconclusive = small, poorly fitted or top-dose-only effect; inactive = flat fitted curve, though single readings scatter.
Your answer must be one of the following: active, inactive

Reference set, count: 3
| molecule | classification |
| --- | --- |
| C[C@]12CC[C@@H]3c4ccc(OC(=O)c5ccccc5)cc4CC[C@H]3[C@@H]1CC[C@@H]2O | active |
| CCN(CC)C(=S)S | inactive |
| C[C@]12CCC(=O)C[C@@H]1CC[C@@H]1[C@@H]2CC[C@]2(C)C=CC[C@@H]12 | inactive |

Input: Please indicate how the test categorized NC(N)=NCC1COc2ccccc2O1 (stereo not drawn) .
Output: inactive

Input: Please indicate how the test categorized O=C1CCC(=O)N1CO .
Output: inactive

Input: Please indicate how the test categorized NC(=S)N=Nc1ccc(NN=C(N)N)cc1 .
Output: active

* * *

procedure.details: Drug repurposing screens with cells derived from glioblastoma tumor samples (AID 1345199); note: % is set by controls: 0 for no effect and ±100 for the full control effect; nearly all actives have a fitted effect of over 40% in size
experimental.setup: GBM patient neurospheres viability, ATP luminescence, 48 h; at 45.9 µM (top of the series); tumour line B
Inconclusive results are not listed.
Each entry below carries its reported activity, negative = cell killing.
Give your result in % as a bare value.

The cases that follow already have their activity, negative = cell killing on record.
| molecule | activity, negative = cell killing [%] |
| --- | --- |
| ClC(Cl)Cl | 0.236 |
| CC(C)(CO)[C@@H](O)C(=O)NCCCC(=O)O | 2.97 |
| CCOc1ccc(S(=O)(=O)O)c2cccnc12 | -12 |
| OCC(O)CO | -10.1 |
| CCCCCCCCCCCC(=O)N(CCO)CCO | -26.4 |
| CC1CC(OC(=O)C(O)c2ccccc2)CC(C)(C)C1 (configuration not stated) | -16.2 |

Input: Could you tell me which activity, negative = cell killing is on file for C/C(=C\C(=O)OCCCCCCCCC(=O)O)C[C@@H]1OC[C@H](C[C@@H]2O[C@H]2[C@@H](C)[C@H](C)O)[C@@H](O)[C@H]1O ?
Output: -19.6

* * *

System: C2A
procedure.details: qHTS profiling for inhibitors of Plasmodium falciparum proliferation (AID 504749); note: nearly all actives have a fitted effect of over 60% in size
experimental.setup: P. falciparum in erythrocytes, SYBR Green DNA, 72 h; series mostly up to 28.7 µM
Inconclusive results are not listed. Active and inactive are the calls of the source. The call rests on the fitted dose curve; in most records, active means well fitted inhibition curve with a large enough effect; inconclusive means small, poorly fitted or top-dose-only effect; inactive means flat fitted curve, though single readings scatter.
Your answer must be one of the following: active, inactive

Reference set, count: 5
| molecule | classification |
| --- | --- |
| O.O.O.O.O.O.O.O=S(=O)([O-])[O-].[Co+2] | active |
| COc1cc2c(cc1OC)[C@@H](Cc1cc(OC)c(OC)c(OC)c1)[N+](C)(CCCOC(=O)CC/C=C/CCC(=O)OCCC[N+]1(C)CCc3cc(OC)c(OC)cc3[C@H]1Cc1cc(OC)c(OC)c(OC)c1)CC2 (stereo partly drawn) | inactive |
| CC(C)(CO)[C@@H](O)C(=O)NCCC(=O)NCCSSCCNC(=O)CCNC(=O)[C@H](O)C(C)(C)CO | inactive |
| C[C@@](Cc1ccc(O)c(O)c1)(NN)C(=O)O | inactive |
| C[C@H](CCC(=O)O)[C@H]1CC[C@H]2[C@@H]3CC[C@@H]4C[C@H](O)CC[C@]4(C)[C@H]3C[C@H](O)[C@]12C | inactive |

Input: Please indicate how the test categorized S=C=Nc1ccc(N=C=S)cc1 .
Output: inactive

Input: Please indicate how the test categorized CCN(CC)CCOc1ccc2nc(N(C)C)sc2c1 .
Output: inactive

Input: Please indicate how the test categorized CN(C)CCCSc1ccccc1NC(=O)/C=C/c1ccccc1 .
Output: inactive

Input: Please indicate how the test categorized O=C(O)Cc1nn(Cc2ccc(Br)cc2F)c(=O)c2ccccc12 .
Output: inactive

Input: Please indicate how the test categorized C=CC(=O)O .
Output: inactive

Input: Please indicate how the test categorized CCCCCCCCCCCCCCCCCC(=O)OC[C@@H](O)[C@H]1OC[C@H](O)[C@H]1O .
Output: inactive

Input: Please indicate how the test categorized COC(=O)[C@@H](N)CS .
Output: inactive

Input: Please indicate how the test categorized CCOC(=O)Cc1ccc(-c2ccccc2)cc1 .
Output: inactive

Input: Please indicate how the test categorized Cc1ncc[nH]1 .
Output: inactive
